Molecular target: Autotaxin (Homo sapiens, UniProt Q13822)
Test: Inhibition of C-terminal FLAG tagged human recombinant ATX expressed in insect sf9 cells at 10 uM using pNP-TMP as substrate measured every 2 mins for 60 mins by absorbance
readout: inhibition

Problem: Reported inhibition, compound `O=C(COc1ccccc1C(F)(F)F)N1CCN(c2ccccc2[N+](=O)[O-])CC1` : ____
Result: 38.2%

Problem: Reported inhibition, compound `O=C(O)c1cccc(N2CCN(C(=O)COc3ccc(C(F)(F)F)cc3)CC2)c1` : ____
Result: 31.6%

Problem: Reported inhibition, compound `O=C(COc1cccc(Cl)c1)N1CCN(c2ccccc2[N+](=O)[O-])CC1` : ____
Result: 24.9%

Problem: Reported inhibition, compound `O=C(COc1ccc(Cl)cc1Cl)N1CCN(c2ccccc2[N+](=O)[O-])CC1` : ____
Result: 37.1%

###

Molecular target: Autotaxin (Homo sapiens, UniProt Q13822)
Experiment: Inhibition of C-terminal FLAG tagged human recombinant ATX expressed in insect sf9 cells at 10 uM using FS-3 as substrate measured every 2 mins for 60 mins by FRET assay
# inhibition per record follows
Kindly answer with a numeric value in %, unit omitted.

compound | system tested | inhibition / %
Cc1ccc(SCC(=O)Nc2ccc(C(=O)NC(C)(C)C)cc2)cc1 | Autotaxin (Homo sapiens, UniProt Q13822) | 8.67
O=C(COc1ccccc1Cl)N1CCN(c2ccccc2[N+](=O)[O-])CC1 | Autotaxin (Homo sapiens, UniProt Q13822) | 47.1
CCc1ccc2c(c1)c1nnc(SCC(=O)Nc3nnc(C(C)C)s3)nc1n2C | Autotaxin (Homo sapiens, UniProt Q13822) | 21.7
O=C(COc1ccc(Cl)cc1Cl)N1CCN(c2ccc([N+](=O)[O-])cc2)CC1 | Autotaxin (Homo sapiens, UniProt Q13822) | 51.8
COc1ccc(/C=N/c2cc(C)ccc2C)cc1OC | Autotaxin (Homo sapiens, UniProt Q13822) | -2.55
CC(C)/C=C/C(=O)N1CCN(C(=O)C2CCC3C4CC=C5CC(O)CCC5(C)C4CCC23C)CC1 (stereo unspecified) | Autotaxin (Homo sapiens, UniProt Q13822) | 13.3
O=C(COc1cc(Cl)cc(Cl)c1)N1CCN(c2ccc([N+](=O)[O-])cc2)CC1 | Autotaxin (Homo sapiens, UniProt Q13822) | 63
Cc1ccc2cc(C#N)c(N3CCCN(C(=O)c4ccc(F)cc4F)CC3)nc2c1 | Autotaxin (Homo sapiens, UniProt Q13822) | 46.4
O=C(O)c1cccc(N2CCN(C(=O)COc3ccc(F)cc3)CC2)c1 | Autotaxin (Homo sapiens, UniProt Q13822) | 58.1
CN(C)CCCCN(CCCN(C)C)Cc1cccc2ccccc12 | Autotaxin (Homo sapiens, UniProt Q13822) | 36.2

Problem: Reported inhibition, compound `Cn1ncc2c(Cl)nc(-c3cc4cc([N+](=O)[O-])ccc4o3)nc21` : ____
Result: -0.99

Problem: Reported inhibition, compound `O=C(O)c1ccc(N2CCN(C(=O)COc3ccccc3C(F)(F)F)CC2)cc1` : ____
Result: 10.9

Problem: Reported inhibition, compound `CC[n+]1c(Cc2nn3c(C)cc(C)nc3[n+]2CC)nn2c(C)cc(C)nc21` : ____
Result: 2.48

###

Biological target: Autotaxin (Homo sapiens, UniProt Q13822)
Experiment: Inhibition of C-terminal FLAG tagged human recombinant ATX expressed in insect sf9 cells at 10 uM using FS-3 as substrate measured every 2 mins for 60 mins by FRET assay
# inhibition per record follows
Kindly answer with a numeric value in %, unit omitted.

Problem: Enter reported inhibition observed with Autotaxin (Homo sapiens, UniProt Q13822) for `O=C(COc1cccc(C(F)(F)F)c1)N1CCN(c2ccccc2[N+](=O)[O-])CC1`
Result: 49.2

Problem: Enter reported inhibition observed with Autotaxin (Homo sapiens, UniProt Q13822) for `O=C(O)c1ccc(N2CCN(C(=O)COc3cc(Cl)cc(Cl)c3)CC2)cc1`
Result: 46.7

Problem: Enter reported inhibition observed with Autotaxin (Homo sapiens, UniProt Q13822) for `O=C(O)c1ccc(N2CCN(C(=O)COc3cccc(F)c3)CC2)cc1`
Result: 32.3

Problem: Enter reported inhibition observed with Autotaxin (Homo sapiens, UniProt Q13822) for `O=C(COc1ccc(Cl)cc1)N1CCN(c2cccc([N+](=O)[O-])c2)CC1`
Result: 62.6

Problem: Enter reported inhibition observed with Autotaxin (Homo sapiens, UniProt Q13822) for Cn1cc(Cl)c(C2NN=C(SCC(=O)Nc3ccc(C(C)(C)C)cc3)S2)n1 (stereo not drawn)
Result: 43.4

Problem: Enter reported inhibition observed with Autotaxin (Homo sapiens, UniProt Q13822) for `CCc1cc2c(cc(C(=O)NCCc3ccc(OC)c(OC)c3)n2C)s1`
Result: 35.1

Problem: Enter reported inhibition observed with Autotaxin (Homo sapiens, UniProt Q13822) for `O=C(COc1ccc(Cl)cc1)N1CCN(c2ccccc2[N+](=O)[O-])CC1`
Result: 59.1

Problem: Enter reported inhibition observed with Autotaxin (Homo sapiens, UniProt Q13822) for `Cc1ccc2cc3c(nc2c1)sc1c(SCC(=O)NCc2ccco2)ncnc13`
Result: 13.4

Problem: Enter reported inhibition observed with Autotaxin (Homo sapiens, UniProt Q13822) for `O=C(O)c1ccccc1N1CCN(C(=O)COc2ccccc2C(F)(F)F)CC1`
Result: 17.3

Problem: Enter reported inhibition observed with Autotaxin (Homo sapiens, UniProt Q13822) for `Cc1c(Br)cc(C(=O)OCC(=O)c2ccccc2)c(C)c1C`
Result: 6.54

Problem: Enter reported inhibition observed with Autotaxin (Homo sapiens, UniProt Q13822) for CC(C)CC1C(=O)NC(C)CN1C(=O)c1ccc(-c2ccccc2)cc1 (stereo not drawn)
Result: 32.8

Problem: Enter reported inhibition observed with Autotaxin (Homo sapiens, UniProt Q13822) for `COC(=O)c1sc(NC(=O)c2cc(C)ccc2Cl)c(C#N)c1C`
Result: -2.35

Problem: Enter reported inhibition observed with Autotaxin (Homo sapiens, UniProt Q13822) for CCCCCCCCCCCC[N+](C)(C)CC(O)C(O)C(O)C(O)CO (stereo not drawn)
Result: 36.7

Problem: Enter reported inhibition observed with Autotaxin (Homo sapiens, UniProt Q13822) for `O=C(O)c1ccccc1N1CCN(C(=O)COc2cc(Cl)cc(Cl)c2)CC1`
Result: 59.8

Problem: Enter reported inhibition observed with Autotaxin (Homo sapiens, UniProt Q13822) for `O=C(O)c1cccc(N2CCN(C(=O)COc3cccc(Cl)c3)CC2)c1`
Result: 80

###

Biological target: Ectonucleotide pyrophosphatase/phosphodiesterase family member 7 (Homo sapiens) (UniProt Q6UWV6)
Sequence (Q6UWV6 whole entry): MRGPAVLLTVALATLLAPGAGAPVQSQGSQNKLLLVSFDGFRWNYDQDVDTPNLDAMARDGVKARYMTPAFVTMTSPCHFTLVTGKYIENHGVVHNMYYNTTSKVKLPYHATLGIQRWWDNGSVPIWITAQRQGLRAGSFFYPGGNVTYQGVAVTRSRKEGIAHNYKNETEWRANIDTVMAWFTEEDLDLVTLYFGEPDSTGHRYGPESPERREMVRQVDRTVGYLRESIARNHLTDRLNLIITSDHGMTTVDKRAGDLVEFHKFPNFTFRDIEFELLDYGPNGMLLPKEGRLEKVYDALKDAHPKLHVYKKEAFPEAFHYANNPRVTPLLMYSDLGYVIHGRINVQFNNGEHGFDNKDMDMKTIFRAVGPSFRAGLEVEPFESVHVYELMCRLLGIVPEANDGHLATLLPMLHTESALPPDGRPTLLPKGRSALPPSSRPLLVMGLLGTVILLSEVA
Test: Inhibition of C-terminal FLAG tagged human recombinant NPP7 expressed in insect sf9 cells assessed as remaining enzyme activity response at 10 uM using pNPPC as substrate measured every 2 mins for 1 hr by […]
readout: Activity

Solved entries (count: 6):
substance smiles | Activity
O=C(O)c1cccc(N2CCN(C(=O)COc3cccc(C(F)(F)F)c3)CC2)c1 | 87.3%
O=C(COc1cc(Cl)cc(Cl)c1)N1CCN(c2ccccc2[N+](=O)[O-])CC1 | 99%
O=C(COc1ccc(Cl)cc1)N1CCN(c2ccc([N+](=O)[O-])cc2)CC1 | 114%
O=C(COc1ccc(Cl)cc1Cl)N1CCN(c2cccc([N+](=O)[O-])c2)CC1 | 89.5%
O=C(COc1cc(Cl)cc(Cl)c1)N1CCN(c2cccc([N+](=O)[O-])c2)CC1 | 102%
O=C(CCCOc1ccc(Cl)cc1Cl)N1CCN(c2ccc([N+](=O)[O-])cc2)CC1 | 86.3%

Problem: Reported Activity, compound `O=C(O)c1ccccc1N1CCN(C(=O)COc2ccc(C(F)(F)F)cc2)CC1` : ____
Result: 90.5%

Problem: Reported Activity, compound `O=C(O)c1cccc(N2CCN(C(=O)COc3ccc(Cl)cc3Cl)CC2)c1` : ____
Result: 103%

Problem: Reported Activity, compound `O=C(O)c1cccc(N2CCN(C(=O)COc3ccc(Cl)cc3)CC2)c1` : ____
Result: 89.2%

Problem: Reported Activity, compound `O=C(O)c1cccc(N2CCN(C(=O)COc3cccc(Cl)c3)CC2)c1` : ____
Result: 84.3%

###

Biological target: UniProtKB Q13822
Experiment: Inhibition of C-terminal FLAG tagged human recombinant ATX expressed in insect sf9 cells at 10 uM using FS-3 as substrate measured every 2 mins for 60 mins by FRET assay
# inhibition per record follows
Kindly answer with a numeric value in %, unit omitted.

Solved entries (count: 4):
compound | recorded result
COc1ccc(N2C(=O)/C(=C/c3ccc(O)c([N+](=O)[O-])c3)SC2=S)cc1 | 4.83
O=C(COc1ccccc1C(F)(F)F)N1CCN(c2ccc([N+](=O)[O-])cc2)CC1 | 54.6
O=C(O)c1ccccc1N1CCN(C(=O)COc2ccc(C(F)(F)F)cc2)CC1 | 89.1
O=C1N=C(Nc2ccccc2)SC1Cc1ccc(-c2cccc(Br)c2)o1 (stereo not given) | -0.74

Problem: Reported inhibition, compound COc1ccc2oc(C(=O)NCCNC(=O)C3C(C=C(C)C)C3(C)C)cc2c1 (stereo not given) : ____
Result: 25.5
